Assay: Pharmacokinetic experiment in rats
Assay type: in vivo, Male SD rats
Details: male, SD; rat plasma, intravenous injection 2 mg/kg
measurement label: AUC(0-inf) (ng·h/mL)
Just the number please, in ng·h/mL, no unit attached.

IN: Given the entry CNc1cc2nc3c(cnn13)C(=O)OC(C)COCc1ccc(OC)c(c1)N2 (stereo not shown) , report its measured AUC(0-inf).
OUT: 2030
